System: Glucocorticoid receptor (Homo sapiens, UniProt P04150)
Sequence (P04150 whole entry): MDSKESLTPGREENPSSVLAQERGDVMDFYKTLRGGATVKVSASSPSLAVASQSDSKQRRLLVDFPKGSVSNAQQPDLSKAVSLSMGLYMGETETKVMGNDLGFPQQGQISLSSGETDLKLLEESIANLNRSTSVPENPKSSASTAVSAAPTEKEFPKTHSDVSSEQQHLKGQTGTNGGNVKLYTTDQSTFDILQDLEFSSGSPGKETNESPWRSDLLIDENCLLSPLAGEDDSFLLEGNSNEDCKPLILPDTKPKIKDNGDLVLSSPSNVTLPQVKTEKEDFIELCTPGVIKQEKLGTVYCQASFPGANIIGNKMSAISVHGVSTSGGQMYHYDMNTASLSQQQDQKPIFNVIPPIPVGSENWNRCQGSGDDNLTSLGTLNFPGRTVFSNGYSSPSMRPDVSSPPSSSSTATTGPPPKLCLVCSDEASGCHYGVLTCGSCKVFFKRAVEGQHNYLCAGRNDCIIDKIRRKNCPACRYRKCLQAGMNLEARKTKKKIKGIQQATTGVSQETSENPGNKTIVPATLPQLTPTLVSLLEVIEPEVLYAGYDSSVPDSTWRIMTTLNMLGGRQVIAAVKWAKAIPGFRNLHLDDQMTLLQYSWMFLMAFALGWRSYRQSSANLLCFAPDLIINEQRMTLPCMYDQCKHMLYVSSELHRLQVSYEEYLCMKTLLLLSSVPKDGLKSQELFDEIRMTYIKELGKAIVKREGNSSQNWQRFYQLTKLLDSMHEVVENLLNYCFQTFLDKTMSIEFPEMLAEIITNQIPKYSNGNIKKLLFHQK
Property label: IC50

[[record]]
compound = "CCC(C)(C)C(O)(Cc1cc2ccncc2[nH]1)CC(C)(C)c1cc(F)ccc1OC (centres undefined)"
meas_value = "> 2 µM"

[[record]]
compound = "COc1ccc(F)cc1C(C)(C)CC(C)(O)Cc1cc2ccncc2[nH]1 (centres undefined)"
meas_value = "> 2 µM"

[[record]]
compound = "COc1ccc(F)cc1C(C)(C)CC(O)(Cc1cc2ccncc2[nH]1)C1CC1 (centres undefined)"
meas_value = "0.047 µM"

[[record]]
compound = "COc1ccc(F)cc1C(C)(C)CC(O)(Cc1cc2ccncc2[nH]1)C1CCCC1 (single isomer, unassigned)"
meas_value = "> 2 µM"

